Listing of entries alongside the reported pEC50.
tested on: RSV strain A2; assay: RSV HEp-2 EC50 (infectious cytopathic cell protection assay); assay type: cell-based; settings: human respiratory syncytial virus, HEp-2, 96 h, HEp-2 cells, RSV A2, 4 days; read-out: RSV HEp-2 EC50
pEC50 (log units): -log10 of the concentration in mol/L.

Example molecules with recorded pEC50:
C[C@H](NP(=O)(OC[C@@]1(C#N)O[C@@H](c2ccc3c(N)ncnn23)[C@H](O)[C@@H]1O)Oc1ccccc1)C(=O)O[C@H]1CC[C@H](C)CC1 (mixture of isomers) [Example 142]	6.60
CC(C)C[C@H](NP(=O)(OC[C@@]1(C#N)O[C@@H](c2ccc3c(N)ncnn23)[C@H](O)[C@@H]1O)Oc1ccccc1)C(=O)OCC1CC1 (mixture of isomers) [Example 130]	5.45
CC(C)OC(=O)[C@H](C)N[P@](=O)(OC[C@@]1(C#N)O[C@@H](c2ccc3c(N)ncnn23)[C@H](O)[C@@H]1O)Oc1ccccc1 (single isomer, unassigned) [Example 1]	6.47

What value of measured pEC50 is listed for C[C@H](NP(=O)(OC[C@@]1(C#N)O[C@@H](c2ccc3c(N)ncnn23)[C@H](O)[C@@H]1O)Oc1ccccc1)C(=O)OCC1CCCCC1 (stereo partly shown) [Example 246] ?
7.46

What value of measured pEC50 is listed for C[C@H](NP(=O)(OC[C@@]1(C#N)O[C@@H](c2ccc3c(N)ncnn23)[C@H](O)[C@@H]1O)Oc1ccccc1)C(=O)OC1CCCCC1 (stereo partly shown) [Example 4] ?
7.02

What value of measured pEC50 is listed for C[C@H](NP(=O)(OC[C@@]1(C#N)O[C@@H](c2ccc3c(N)ncnn23)[C@H](O)[C@@H]1O)Oc1ccccc1)C(=O)OC1CCCCCC1 (stereo partly shown) [Example 134] ?
6.48

What value of measured pEC50 is listed for CCOC(=O)[C@H](C)NP(=O)(OC[C@@]1(C#N)O[C@@H](c2ccc3c(N)ncnn23)[C@H](O)[C@@H]1O)Oc1ccc(C(C)(C)C)cc1 (mixture of isomers) [Example 263] ?
7.46

What value of measured pEC50 is listed for CC(C)[C@H](NC(=O)OC(C)(C)C)C(=O)OCCNP(=O)(OC[C@@]1(C#N)O[C@@H](c2ccc3c(N)ncnn23)[C@H](O)[C@@H]1O)Oc1ccccc1 (stereo partly shown) [Example 139] ?
5.19

What value of measured pEC50 is listed for COC(=O)[C@H](C)N[P@](=O)(OC[C@@]1(C#N)O[C@@H](c2ccc3c(N)ncnn23)[C@H](OC(=O)C(C)C)[C@@H]1O)Oc1ccccc1 [Example 250] ?
7.16

What value of measured pEC50 is listed for C[C@H](NP(=O)(OC[C@@]1(C#N)O[C@@H](c2ccc3c(N)ncnn23)[C@H](O)[C@@H]1O)Oc1ccccc1)C(=O)OC[C@H]1CC[C@H](C(F)(F)F)CC1 (mixture of isomers) [Example 26] ?
6.48

What value of measured pEC50 is listed for CCCCCCCC(=O)Nc1ncnn2c([C@@H]3O[C@](C#N)(CO[P@@](=O)(N[C@@H](C)C(=O)OC4CCCCC4)Oc4ccccc4)[C@@H](O)[C@H]3O)ccc12 [Example 212] ?
6.88

----------
test system: RSV strain A2; test: RSV HEp-2 EC50 (infectious cytopathic cell protection assay); assay type: cell-based; settings: human respiratory syncytial virus, HEp-2, 96 h, HEp-2 cells, RSV A2, 4 days; read-out: RSV HEp-2 EC50
pEC50: −log10 of the molar value.
Quick rule for you: pEC50 at 7 or higher means satisfied, lower means not satisfied.

C[C@H](NP(=O)(OC[C@@]1(C#N)O[C@@H](c2ccc3c(N)ncnn23)[C@H](O)[C@@H]1O)Oc1ccccc1)C(=O)O[C@@H]1CCNC1 (mixture of isomers) [Example 137]	not satisfied
CC1(C(=O)OCCNP(=O)(OC[C@@]2(C#N)O[C@@H](c3ccc4c(N)ncnn34)[C@H](O)[C@@H]2O)Oc2ccccc2)CC1 (some centres unmarked) [Example 141]	not satisfied
C[C@H](NP(=O)(OC[C@@]1(C#N)O[C@@H](c2ccc3c(N)ncnn23)[C@H](O)[C@@H]1O)Oc1ccccc1)C(=O)OCC1(C)CC1 (some centres unmarked) [Example 257]	satisfied
CCOC(=O)[C@H](Cc1ccccc1)NP(=O)(OC[C@@]1(C#N)O[C@@H](c2ccc3c(N)ncnn23)[C@H](O)[C@@H]1O)Oc1ccccc1 (some centres unmarked) [Example 3]	not satisfied
C[C@H](NP(=O)(OC[C@@]1(C#N)O[C@@H](c2ccc3c(N)ncnn23)[C@H](O)[C@@H]1O)Oc1ccccc1)C(=O)OCC1CCOCC1 (some centres unmarked) [Example 20]	not satisfied

Determine whether this molecule has pEC50 no lower than 7: CC(C)OC(=O)[C@H](C)N[P@@](=O)(OC[C@@]1(C#N)O[C@@H](c2ccc3c(N)ncnn23)[C@H](O)[C@@H]1O)Oc1ccccc1 (single isomer, unassigned) [Example 78]
not satisfied

Determine whether this molecule has pEC50 no lower than 7: C[C@H](NP(=O)(OC[C@@]1(C#N)O[C@@H](c2ccc3c(N)ncnn23)[C@H](O)[C@@H]1O)Oc1ccccc1)C(=O)OC1CCN(C)CC1 (some centres unmarked) [Example 150]
not satisfied

Determine whether this molecule has pEC50 no lower than 7: C[C@H](NP(=O)(OC[C@@]1(C#N)O[C@@H](c2ccc3c(N)ncnn23)[C@H](O)[C@@H]1O)Oc1ccccc1)C(=O)O[C@H]1CCCC[C@@H]1C (mixture of isomers) [Example 155]
not satisfied

Determine whether this molecule has pEC50 no lower than 7: CCCOC(=O)[C@H](C)N[P@](=O)(OC[C@@]1(C#N)O[C@@H](c2ccc3c(N)ncnn23)[C@H](O)[C@@H]1O)Oc1ccccc1 [Example 45]
satisfied

Determine whether this molecule has pEC50 no lower than 7: CCCCCCCCOC(=O)[C@H](C)NP(=O)(OC[C@@]1(C#N)O[C@@H](c2ccc3c(N)ncnn23)[C@H](O)[C@@H]1O)Oc1ccccc1 (some centres unmarked) [Example 188]
not satisfied

----------
tested on: RSV strain A2; experiment: RSV HEp-2 EC50 (infectious cytopathic cell protection assay); format: cell-based; conditions: human respiratory syncytial virus, HEp-2, 96 h, HEp-2 cells, RSV A2, 4 days; read-out: RSV HEp-2 EC50
pEC50: −log10 of the molar value.
Quick rule for you: pEC50 at 6 or higher means True, lower means False.

C[C@H](NP(=O)(OC[C@@]1(C#N)O[C@@H](c2ccc3c(N)ncnn23)[C@H](O)[C@@H]1O)Oc1cccc2ccccc12)C(=O)OC1CCCCC1 (stereo partly drawn)	True
CCCCCCCCCCCCOC(=O)[C@H](C)NP(=O)(OC[C@@]1(C#N)O[C@@H](c2ccc3c(N)ncnn23)[C@H](O)[C@@H]1O)Oc1ccccc1 (stereo partly drawn)	False
C[C@H](NP(=O)(OC[C@@]1(C#N)O[C@@H](c2ccc3c(N)ncnn23)[C@H](O)[C@@H]1O)Oc1ccccc1)C(=O)O[C@H]1CCOC1 (mixture of isomers)	True
CCOC(=O)[C@H](CC)NP(=O)(OC[C@@]1(C#N)O[C@@H](c2ccc3c(N)ncnn23)[C@H](O)[C@@H]1O)Oc1ccccc1 (stereo partly drawn)	True

Determine whether this compound has pEC50 no lower than 6: N#C[C@]1(COP(=O)(NCCOC(=O)C2CCCCC2)Oc2ccccc2)O[C@@H](c2ccc3c(N)ncnn23)[C@H](O)[C@@H]1O (stereo partly drawn)
True

----------
test system: HCV replicon 2A; assay: HCV Rep 2A EC50 (replicon luciferase); assay type: cell-based; conditions: Hepatitis C virus, 72 h, read-out: HCV Rep 2A EC50, replicon cells, 3 days
Listing of entries alongside the reported EC50.
Give your result as the value with the unit written after it.

What value of measured EC50 is listed for C[C@H](NP(=O)(OC[C@@]1(C#N)O[C@@H](c2ccc3c(N)ncnn23)[C@H](O)[C@@H]1O)Oc1ccccc1)C(=O)OCCC(C)(C)C (single isomer, unassigned) [Example 252] ?
1.65 µM

What value of measured EC50 is listed for C[C@H](NP(=O)(OC[C@@]1(C#N)O[C@@H](c2ccc3c(N)ncnn23)[C@H](O)[C@@H]1O)Oc1ccccc1)C(=O)OCCC(C)(C)C (stereo partly shown) [Example 251] ?
1.11 µM

What value of measured EC50 is listed for C[C@H](NP(=O)(OC[C@@]1(C#N)O[C@@H](c2ccc3c(N)ncnn23)[C@H](O)[C@@H]1O)Oc1ccccc1)C(=O)O[C@H]1CCOC1 (single isomer, unassigned) [Example 66] ?
21.8 µM

----------
tested on: HRV16; test: HRV16 HELA EC50 (cytopathic effect in H1-HeLa cells); type: cell-based; settings: 96 h, H1-HeLa cells, 33° C., read-out: HRV16 HELA EC50
Listing of entries alongside the reported EC50.
// units = µM; emit number, no label

C[C@H](NP(=O)(OC[C@@]1(C#N)O[C@@H](c2ccc3c(N)ncnn23)[C@H](O)[C@@H]1O)Oc1ccccc1)C(=O)OC1CCNCC1 (mixture of isomers)	46.2
CCCCCCCCCCCCCCCCCCOC[C@H](COC(=O)C(C)NP(=O)(OC[C@@]1(C#N)O[C@@H](c2ccc3c(N)ncnn23)[C@H](O)[C@@H]1O)Oc1ccccc1)OCc1ccccc1 (some centres unmarked)	2.64

# next compound below
What value of measured EC50 is listed for `CC(C)OC(=O)[C@H](C)N[P@](=O)(OC[C@@]1(C#N)O[C@@H](c2ccc3c(NC(=O)C(C)C)ncnn23)[C@H](O)[C@@H]1O)Oc1ccccc1` ?
6.87

The values you see were collected from patent US20230295201A1.
